Target: T1, full-length human Nectin-4 on cells (human, UniProt Q96NY8 32-510)
T1 sequence: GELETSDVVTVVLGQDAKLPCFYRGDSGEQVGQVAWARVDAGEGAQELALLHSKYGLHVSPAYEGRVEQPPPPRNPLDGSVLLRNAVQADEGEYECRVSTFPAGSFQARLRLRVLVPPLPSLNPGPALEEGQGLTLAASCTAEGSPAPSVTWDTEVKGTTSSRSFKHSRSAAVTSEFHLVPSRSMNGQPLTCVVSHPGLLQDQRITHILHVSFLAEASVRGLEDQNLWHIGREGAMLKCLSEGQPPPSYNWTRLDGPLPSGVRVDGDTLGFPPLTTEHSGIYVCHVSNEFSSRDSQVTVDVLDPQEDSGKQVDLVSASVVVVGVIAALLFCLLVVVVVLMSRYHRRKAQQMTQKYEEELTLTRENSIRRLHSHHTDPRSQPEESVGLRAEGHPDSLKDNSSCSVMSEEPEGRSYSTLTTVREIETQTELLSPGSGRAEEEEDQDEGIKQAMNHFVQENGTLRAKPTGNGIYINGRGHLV
Experiment: cell-based or functional assay
observation type: Endocytosis EC50 (cell killing with MMAF-conjugated Fab anti-hFc), Nectin-4-CHO cells (nM)
Numbers only here, please. The scale is nM.

# query: Endocytosis EC50 (cell killing with MMAF-conjugated Fab anti-hFc), Nectin-4-CHO cells of entry N4_mAb 3 (antibody, human IgG1, V domains shown, Tested as chimera (human IgG1/kappa constants); not shown: human IgG1 constant region (Uniprot P01857); human Kappa light chain constant region (UniProt P01834)) VH: EVQLQQSGAELVKPGASVKLSCTVSGFNIKDTYMHWVKQRPEQGLEWIGRIDPANGNTKYDPKFQGKATIIADKASNTAYLQLSSLTSEDAAVYYCAHYYGSSYFAMDCWGQGTSVTVSS VL: DIVMTQSHKFMSTSVGDRVSITCKASQDVSTAVAWYQQKPGQSPKLLIYWASTRHTGVPDRFTGSGSGTDYTLTISSVQTEDLALYYCQQHYSTPLTFGAGTKLELK 0.53

# query: Endocytosis EC50 (cell killing with MMAF-conjugated Fab anti-hFc), Nectin-4-CHO cells of entry N4_mAb 7 (antibody, human IgG1, V domains shown, Tested as chimera (murine variable regions, human IgG1/kappa constants); not shown: human IgG1 constant region (Uniprot P01857); human Kappa light chain constant region (UniProt P01834)) VH: QVQLQQSGPELVKPGASVKMSCKASGYTFTTYYIHWVKQRPGQGLEWIGWIYPGNAGIKSNEKFKGKTTLTADKSSSTAYMLLSSLTSEDSAIYFCARGVYFFDYWGQGTTLTVSS VL: SIVMTQTPKFLLVSAGDRVTITCKASQSVNNDVSWFQQKPGQSPKLLIYYASNRYTGVPDRFSGSGYGTDFTFTITTVQAEDLAVYFCQQDYSSPYTFGGGTKLEIK 0.21

The measured values listed here are drawn from patent US12723100.
